- Assay: qHTS Assay for Lipid Storage Modulators in Drosophila S3 Cells;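 as to cell number change: cells counted by Cell Tracker Red CMTPX staining in the red channel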
- Experimental conditions: BODIPY lipid droplet fluorescence, 18-24 h, cells fed with added oleic acid; measured here: cell count max response
About 2,100 (0.66%) of roughly 320,000 compounds were called active. Roughly 53% stayed inconclusive and do not appear here. The entries come from a sample that favours actives as a whole.
Property measured: cell number change
For clarity, give the value followed by its unit.

Please list cell number change recorded for the compound CCCCc1ccc(CC(=O)Nc2cc(S(=O)(=O)N3CCOCC3)ccc2O)cc1
-16.2%

Please list cell number change recorded for the compound O=S1(=O)CC/C(=N\O)c2ccccc21
0.644%

Please list cell number change recorded for the compound O=C(CC1C(=O)NC2CCCCC2N1C(=O)c1ccc(F)cc1)Nc1ccccc1 (stereo not drawn)
18%

Please list cell number change recorded for the compound COc1cccc(NC(=O)CC2C(=O)NC3CCCCC3N2C(=O)c2ccc(F)cc2)c1 (stereo not drawn)
36.9%

Please list cell number change recorded for the compound Cc1ccccc1C(=O)NCCn1cc(SCC(=O)NCC2CCCO2)c2ccccc21 (stereo not drawn)
4.31%

Please list cell number change recorded for the compound CCn1cc(SCC(=O)NCC2CCCO2)c2ccccc21 (stereo not drawn)
-11.7%

Please list cell number change recorded for the compound Cc1ccc(NC(=O)CCNS(=O)(=O)c2cccc3nonc23)cc1
12.6%

Please list cell number change recorded for the compound Cc1cc(SCC(=O)Nc2cccc(S(N)(=O)=O)c2)c(C)cc1Br
15.2%

Please list cell number change recorded for the compound O=C(Nc1ccc(N2CCOCC2)cc1)C1CCCN(S(=O)(=O)c2cccc(C(F)(F)F)c2)C1 (stereo not drawn)
2.4%

Please list cell number change recorded for the compound COc1ccc(NC(=O)CC2C(=O)NC3CCCCC3N2C(=O)c2ccc(F)cc2)cc1 (stereo not drawn)
6.58%

Please list cell number change recorded for the compound O=C(Nc1cc(S(=O)(=O)N2CCOCC2)ccc1O)c1ccco1
-13.8%

Please list cell number change recorded for the compound C/C(=N\NC(=O)CCc1ccc(S(=O)(=O)N2CCOCC2)cc1)c1ccc(OC(F)F)cc1
-28.6%

Please list cell number change recorded for the compound COc1cc(NS(=O)(=O)c2ccc(NC(=S)NC(=O)c3ccco3)cc2)nc(OC)n1
-18.5%

Please list cell number change recorded for the compound O=C(NCC(F)(F)F)Nc1nnc(C(F)(F)F)s1
0.475%

Please list cell number change recorded for the compound COc1ccc(C(=O)CSc2nnc(C3CC3)n2N)cc1
-1.83%

Please list cell number change recorded for the compound C/C(=N\NC(=O)CCc1ccc(S(=O)(=O)N2CCOCC2)cc1)c1ccccc1Cl
15.6%

Please list cell number change recorded for the compound CC(=O)NCCc1ccc(S(=O)(=O)Nc2ccc(C)c(S(=O)(=O)N3CCOCC3)c2)cc1
-24.8%

Please list cell number change recorded for the compound CC(C)(C)CC(=O)Nc1nnc(C(F)(F)F)s1
0.161%

Please list cell number change recorded for the compound CC(C)(C)N(Cc1ccccc1)C(=O)COC(=O)c1ccc(Br)o1
-7.45%

Please list cell number change recorded for the compound Cc1nn(C)cc1-c1csc(N)n1
19%

Please list cell number change recorded for the compound O=C(CCC(=O)N1CCCC1)Nc1nnc(C(F)(F)F)s1
11.1%

Please list cell number change recorded for the compound O=C(Nc1nnc(-c2cccs2)o1)C1CC1
-5.18%

Please list cell number change recorded for the compound CC(=O)NCCc1ccc(S(=O)(=O)N2CCOCC2)cc1
-15.6%

###

- Assay: qHTS Assay for Lipid Storage Modulators in Drosophila S3 Cells; also: potency is read from the fitted curve at half-maximal effect
- Experimental conditions: BODIPY lipid droplet fluorescence, 18-24 h, cells fed with added oleic acid; series mostly up to 46.1 µM
The whole screen tested about 320,000 compounds, of which about 2,100 (0.66%) were called active. Not shown: some 53% with an inconclusive outcome. The sample as a whole holds a higher share of actives than the screen did.
Property measured: Potency

CC(C)N(C(=O)Cn1c(=O)oc2ccccc21)c1ccccc1 | inactive
Cc1ccc(CCNC(=O)C2CCCN(S(=O)(=O)N3CC(C)CC(C)C3)C2)cc1 (stereo unspecified) | inactive
COc1ccccc1N(CC(=O)Nc1ccc(Cc2ccncc2)cc1)S(=O)(=O)c1ccccc1 | 7.31 µM (active)
O=C(NCCN1CCOCC1)c1cccc(S(=O)(=O)N2CCCC2)c1 | inactive
Cn1cc(S(=O)(=O)N2CCOCC2)cc1C(=O)Nc1cccc(Cl)c1 | 7.31 µM (active)

Please list Potency recorded for the compound CCOCCn1c(N2CCCC2)nc2c1c(=O)n(C)c(=O)n2C
inactive

Please list Potency recorded for the compound Cc1nn(-c2ccccc2)c(=S)n1-c1ccccc1
32.6 µM (active)

Please list Potency recorded for the compound O=C(Nc1nccs1)c1cccc(S(=O)(=O)N2CCOCC2)c1
inactive

###

- Assay: qHTS Assay for Lipid Storage Modulators in Drosophila S3 Cells; also: potency is read from the fitted curve at half-maximal effect
- Experimental conditions: BODIPY lipid droplet fluorescence, 18-24 h, cells fed with added oleic acid; series mostly up to 46.1 µM
Screen size: about 320,000 compounds; about 2,100 (0.66%) were called active. Not shown: some 53% with an inconclusive outcome. This excerpt belongs to a sample that is enriched for actives.
Property measured: Potency

Recorded results for 8 compounds are shown here.
CN(c1ccccc1)S(=O)(=O)c1ccc(C(=O)NCc2cccs2)cc1 | inactive
COc1ccc(Nc2nnc(-c3ccc(O)cc3)c3ccccc23)cc1 | inactive
Cc1nc2c(sc(=S)n2Cc2ccco2)c(=O)n1CC(=O)Nc1ccc(F)cc1 | 16.4 µM (active)
Cc1cccc(OCCC(=O)OCC(=O)N2CCc3ccccc32)c1 | inactive
C#CCOCCOCCOCCNc1nc(N2CCN(C(=O)[C@H](CCC(=O)O)n3cc(C(N)[C@H](C)CC)nn3)CC2)nc(N2CCN(C(=O)[C@H](CCC(=O)O)n3cc(C(N)[C@H](C)CC)nn3)CC2)n1 (stereo partly drawn) | inactive
O=C(Cc1ccccc1)NCC(=O)N/N=C/c1cccs1 | inactive
COc1cc(CC(=O)OCC(=O)Nc2ccc(S(=O)(=O)N3CCCC3)cc2)cc(OC)c1OC | inactive
CCc1ccc(N(CC(=O)O)S(=O)(=O)c2c(C)noc2C)cc1 | inactive

Please list Potency recorded for the compound O=C(NCCCN=C1NS(=O)(=O)c2ccccc21)c1ccc(S(=O)(=O)N2CCCCC2)cc1
8.2 µM (active)

Please list Potency recorded for the compound Cc1ccc(NC(=O)CSc2nnc(-c3ccc(S(=O)(=O)N4CCOCC4)cc3)n2C)cc1
inactive

###

- Assay: qHTS Assay for Lipid Storage Modulators in Drosophila S3 Cells;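 as to cell number change: cells counted by Cell Tracker Red CMTPX staining in the red channel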
- Experimental conditions: BODIPY lipid droplet fluorescence, 18-24 h, cells fed with added oleic acid; measured here: cell count max response
Out of some 320,000 compounds screened, about 2,100 (0.66%) were called active. Not shown: some 53% with an inconclusive outcome. This excerpt belongs to a sample that is enriched for actives.
Property measured: cell number change (%)
Provide only the numeric value, understood in %.

Please list cell number change recorded for the compound O=C(O)c1ccc(N2N=C(c3ccccc3)CC2c2ccccc2)cc1 (stereo not given)
-6.08

Please list cell number change recorded for the compound O=C(NC1CCCC1)C(c1ccc(F)cc1)N(C(=O)c1csnn1)C1CC1 (stereo not given)
-11.5

Please list cell number change recorded for the compound C=CCN(C(=O)c1csnn1)C(C(=O)NC1CCCCC1)c1ccc(F)cc1 (stereo not given)
11.7

Please list cell number change recorded for the compound O=C(NC1CCCC1)C(c1c(F)cccc1Cl)N(C(=O)c1csnn1)C1CC1 (stereo not given)
-12.9

Please list cell number change recorded for the compound COC(=O)c1ccc(C23CC4(C2)[C@H](CN(CC2CCCCC2)[C@@H]4c2ccccc2)C3c2ccccc2)cc1 (stereo not given in full)
12.7

Please list cell number change recorded for the compound O=C(NC1CCCC1)C(c1ccc(Cl)cc1)N(C(=O)c1csnn1)C1CC1 (stereo not given)
12.1

Please list cell number change recorded for the compound C=CCN(C(=O)c1csnn1)C(C(=O)NC1CCCC1)c1ccccc1 (stereo not given)
15.2

Please list cell number change recorded for the compound C=CCN(C(=O)c1csnn1)C(C(=O)NC1CCCC1)c1c(F)cccc1Cl (stereo not given)
0.427

Please list cell number change recorded for the compound Oc1ccccc1C1=NN(c2ccccc2)C(c2ccccc2)C1 (stereo not given)
0.901

Please list cell number change recorded for the compound C=CCN(C(=O)c1csnn1)C(C(=O)NC1CCCC1)c1ccc(Cl)cc1 (stereo not given)
-41

###

- Assay: qHTS Assay for Lipid Storage Modulators in Drosophila S3 Cells
- Experimental conditions: BODIPY lipid droplet fluorescence, 18-24 h, cells fed with added oleic acid; series mostly up to 46.1 µM
Out of some 320,000 compounds screened, about 2,100 (0.66%) were called active. Another 53% or so got no clear call; they are omitted. Calls follow the shape of the dose curve; as a rule, active = well fitted inhibition curve with a large enough effect in the signal ratio, with a control signal flat (not every such curve was filed as active); inconclusive = small, poorly fitted or top-dose-only effect, or effect the other way, or a change in a side signal; inactive = flat fitted curve, though single readings scatter; the % refers to the signal ratio. The sample holds actives, similar compounds and a random draw of the others, so the mix is not that of the screen.
The categories you may choose from are YES (active), NO (inactive)

Per the records of this test, what outcome belongs to Cc1ccc(P(=O)(OCCN2CCOCC2)C(C)(C)C)o1 (stereo unspecified) ?
NO

Per the records of this test, what outcome belongs to Cc1ccc(OCC(=O)NCCCNC(=O)c2ccncc2)cc1 ?
NO

Per the records of this test, what outcome belongs to C=CCn1cccc(C(=O)Nc2ccc(C)cc2)c1=O ?
NO

Per the records of this test, what outcome belongs to CC(C)(C)c1cc(C(=S)N2CCN(CCO)CC2)cc(C(C)(C)C)c1O ?
NO

Per the records of this test, what outcome belongs to Cc1cc(C)n(-c2ccc(Cl)c(C(=O)Nc3ccc(OC(F)(F)F)cc3)n2)n1 ?
NO

Per the records of this test, what outcome belongs to Cc1ccc(C)c(NC(=O)c2cc[n+](C)cc2)c1 ?
NO

Per the records of this test, what outcome belongs to CC(C)(C)c1cc(C(=O)CCN2CCOCC2)cc(C(C)(C)C)c1O ?
YES

Per the records of this test, what outcome belongs to CN1CCN(CC(=O)c2cc(C(C)(C)C)c(O)c(C(C)(C)C)c2)CC1 ?
NO

Per the records of this test, what outcome belongs to Cc1ccc(-n2nc3c(=O)n(CC(=O)NCc4ccc(C)o4)nc(C)c3c2C)cc1 ?
NO

Per the records of this test, what outcome belongs to CCS(=O)(=O)c1ccc2oc(SCC(=O)Nc3ccc(OC)cc3)nc2c1 ?
NO

Per the records of this test, what outcome belongs to CC1CCc2sc(C(=O)NNC(=S)NCC3CCCO3)cc2C1 (stereo unspecified) ?
NO
